Test: Hemolytic activity in rat RBC assessed as hemolysis up to 100 microg/ml measured after 1 hr
Type: toxicity, cell-based, Erythrocyte
Details: red blood cells, up to 100 µg/mL, read-out: Activity
Measured Endpoint: hemolysis at 1 h

**Q:** Quick one: hemolysis at 1 h for [Cl-].[Cl-].[Cl-].[Cl-].c1cc2ccc1C[n+]1ccc(cc1)-c1ccc3cc(ccc3c1)-c1cc[n+](cc1)Cc1ccc(cc1)C[n+]1ccc(cc1)-c1ccc3cc(ccc3c1)-c1cc[n+](cc1)C2 ?
**A:** ≤ 5%

---

Assay: Water solubility of compound
Assay type: physicochemical
Measured Endpoint: solubility

**Q:** Which solubility reading was recorded for the compound C[n+]1ccc(-c2ccc3cc(-c4cc[n+](C)cc4)ccc3c2)cc1.[Cl-].[Cl-] ?
**A:** 3.5 mM

**Q:** Return reported solubility; argument: C[n+]1ccc(-c2ccc(-c3cc[n+](C)cc3)c3ccccc23)cc1.[Cl-].[Cl-]
**A:** 13.1 mM

**Q:** Request the reported solubility associated with C[n+]1ccc(-c2cccc3c(-c4cc[n+](C)cc4)cccc23)cc1.[Cl-].[Cl-]
**A:** 20.7 mM
